B1: Osa-1-4 twister ribozyme (parent)
chain: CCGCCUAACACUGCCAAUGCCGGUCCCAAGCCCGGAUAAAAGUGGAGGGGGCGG

Variants of: B1
Assay details: self-cleavage, relative activity (ratio to wild type); higher = more cleavage; co-transcriptional
Could you please report measured self-cleavage for the items listed next?
Give the value as a plain number.

Query string: Param item = CCGCCUAGCACUGACAAUGCCGGUCCCAAGCCCGGAUAAAAGUGGAGGGGGCGG [A8G C14A] ; retrieve measured self-cleavage.
Result string: 0.07

Query string: # iterate: CCGCCUAACACUGCCAAUGCCGGUCCCAAGCCCGGAUAAAAGUGGAGAGGGCUG [G48A G53U]
Result string: 0.09

Query string: # iterate: CCGCCUAACACUGCCAACGCCGGUCCCAAGCCCGGAUAAAAGUGGAGGGGACGG [G51A U18C]
Result string: 0.46

Query string: # iterate: CCGCCUAACACUGCCAAUGCCGUUCCCAAUCCCGGAUAAAAGUGGAGGGGGCGG [G23U G30U]
Result string: 0.02

Query string: # iterate: CCGCCUAACACUGCCAAUGCCGGUCCCAAGCCCGGAUAAAAUUGGACGGGGCGG [G42U G47C]
Result string: 0.02

Query string: # iterate: CCGCCUGACACUGCCAAUGCCGGUCCCAAGCCCGGAUAAAAGUGGAGGUGGCGG [A7G G49U]
Result string: 0.05

Query string: # iterate: CCGCCUAACACUGCCAAUGCCGGUUCCUAGCCCGGAUAAAAGUGGAGGGGGCGG [A28U C25U]
Result string: 0.28

Query string: # iterate: CCGCCUAACACUGCCAAUGCCGGUCCCAAGCCCGGAUAAAAGUGGCGGGUGCGG [A46C G50U]
Result string: 0.09

Query string: # iterate: CCGCCUAACACUGCCAAUGCCGUUCCCAAGCCCGGAUAAAAGUGGAAGGGGCGG [G23U G47A]
Result string: 0.03

Query string: # iterate: CCGCCUAACACUGCCAAUGCCGGUCCCAAGCCCGGAUAAAAGCGGAGGGGUCGG [G51U U43C]
Result string: 0.11

Query string: # iterate: CCGCCUAACACUGCCAAUGCCGGUCCCAAGCCCGGAUAGAAGUGGAGGGAGCGG [A39G G50A]
Result string: 0.72

Query string: # iterate: CCGCCUAACACUGCCAAUGCCGGUCCCAAGCCCCGAUAGAAGUGGAGGGGGCGG [A39G G34C]
Result string: 0.42

Query string: # iterate: CCGCCUAACACUGCCAAUGCCGGUCCCACGCCCGGAUAAAAGUUGAGGGGGCGG [A29C G44U]
Result string: 0.05

Query string: # iterate: CCGCCUAACACUGGCAAUGCCGGCCCCAAGCCCGGAUAAAAGUGGAGGGGGCGG [C14G U24C]
Result string: 0.04

Query string: # iterate: CCGCCUAACACUGCCAAUGCCGGGCCCAAGCCCGGAUCAAAGUGGAGGGGGCGG [A38C U24G]
Result string: 0.04

Query string: # iterate: CCGCCUAAAACUGCCAAUGCCGGUCCCAAGCCCGGAUAAAAGUGGGGGGGGCGG [A46G C9A]
Result string: 0.03

Query string: # iterate: CCGCCUCAUACUGCCAAUGCCGGUCCCAAGCCCGGAUAAAAGUGGAGGGGGCGG [A7C C9U]
Result string: 0.02

Query string: # iterate: CCGCCUAACACUGUCAAUGCCGGUCCCAAGCCCGGAUAAAAGUGGAGGGCGCGG [C14U G50C]
Result string: 0.1

Query string: # iterate: CCGCCUAACACUGGCAAUGCCGGACCCAAGCCCGGAUAAAAGUGGAGGGGGCGG [C14G U24A]
Result string: 0.04

Query string: # iterate: CCGCCUAACACUGCCAAUGCCGGUCCCAAGCCCGGAAAAAAGUGGAGGGCGCGG [G50C U37A]
Result string: 0.78

Query string: # iterate: CCGCCUAACACUGCCAAUGCCAGUCCCAAGCCCGGAUAAAAGUGGAUGGGGCGG [G22A G47U]
Result string: 0.12

Query string: # iterate: CCGCCUAACACUGCCAAUGCCGGUCCCAAGCCCGGAUAAAAGUGAAAGGGGCGG [G45A G47A]
Result string: 0.06

Query string: # iterate: CCGCCUAACACUGCCAAUGCCGGUCCCAAGCGCGGAUAAAAGUGGAGGGCGCGG [C32G G50C]
Result string: 0.09

Query string: # iterate: CCGCCUAACACUGCCAAUGCCGGACCCAAGCCCGGAUAAAAGGGGAGGGGGCGG [U24A U43G]
Result string: 0.05

Query string: # iterate: CCGCCUAACACUGCCAAUGCCGCUCCCAAGCCCGGAUAAAAGUGGUGGGGGCGG [A46U G23C]
Result string: 0.02

Query string: # iterate: CCGCCUAAGACUGCCAAUGCCGGUCCCAAGCCAGGAUAAAAGUGGAGGGGGCGG [C33A C9G]
Result string: 0.08

Query string: # iterate: CCGCCUAACACUGUCAAUGCCGGUCCCAAGCCCGGAUAAAAGUGGAGGGGGCGC [C14U G54C]
Result string: 0.12

Query string: # iterate: CCGCCUAACAUUGCCAAUGCCGGUCCCAAGCCCUGAUAAAAGUGGAGGGGGCGG [C11U G34U]
Result string: 0.19

Query string: # iterate: CCGCCUAACACUGGCAAUGCCGGUCCUAAGCCCGGAUAAAAGUGGAGGGGGCGG [C14G C27U]
Result string: 0.07

Query string: # iterate: CCGCCUAACACUGCCAAUGCCGGUCCCAAUCCCGGAUAACAGUGGAGGGGGCGG [A40C G30U]
Result string: 0.01

Query string: # iterate: CCGCCUAACACUGCCAAUGCCGGUCCCAAGCCCGCAUAAUAGUGGAGGGGGCGG [A40U G35C]
Result string: 0.09

Query string: # iterate: CCGCCUAACACUGUCAAUGCCGGGCCCAAGCCCGGAUAAAAGUGGAGGGGGCGG [C14U U24G]
Result string: 0.02

Query string: # iterate: CCGCCUAACACUGCCAUUGCCGGUCCCAAGCCCGGAUAAAAGGGGAGGGGGCGG [A17U U43G]
Result string: 0.57

Query string: # iterate: CCGCCUAACACUGCCAAUGCCGGUCCCAAGCCCGGUUAAAAGUGGGGGGGGCGG [A36U A46G]
Result string: 0.09

Query string: # iterate: CCGCCUAACACUGGCAAUGCCGGUCCCAAGCCCGGAUAUAAGUGGAGGGGGCGG [A39U C14G]
Result string: 0.12

Query string: # iterate: CCGCCUAACACUGCCAAUGCCGAUCCCAAGCCCGGACAAAAGUGGAGGGGGCGG [G23A U37C]
Result string: 0.72

Query string: # iterate: CCGCCUAACACUGCCAAUGCCGGUUUCAAGCCCGGAUAAAAGUGGAGGGGGCGG [C25U C26U]
Result string: 0.21

Query string: # iterate: CCGCCUAACACUGCCAACGGCGGUCCCAAGCCCGGAUAAAAGUGGAGGGGGCGG [C20G U18C]
Result string: 0.2

Query string: # iterate: CCGCCUAACACUUCCAAUGCCGGUCCCAAGCCCUGAUAAAAGUGGAGGGGGCGG [G13U G34U]
Result string: 0.03

Query string: # iterate: CCGCCUAGCACUGCCAAUGCCGGUCCCAAGCCCGGAUAACAGUGGAGGGGGCGG [A40C A8G]
Result string: 0.05

Query string: # iterate: CCGCCUAACACUGCCAAUGCCGGUCCCAGGCCCGGAUAAAAGUGGAGGCGGCGG [A29G G49C]
Result string: 0.04

Query string: # iterate: CCGCCUAACACUGCCAAUGCUGGUCCCAAGCCCGGAUAAAAGAGGAGGGGGCGG [C21U U43A]
Result string: 0.89

Query string: # iterate: CCGCCUAACACUGCCAAUGCCGCUCCCAUGCCCGGAUAAAAGUGGAGGGGGCGG [A29U G23C]
Result string: 0.03

Query string: # iterate: CCGCCUAACACUGCCCAUGCCGGUCCCAGGCCCGGAUAAAAGUGGAGGGGGCGG [A16C A29G]
Result string: 0.11

Query string: # iterate: CCGCCUAACACUGCCAAUGCCGGUCCCAAGCCCAGAUAAAAGUGGUGGGGGCGG [A46U G34A]
Result string: 0.06

Query string: # iterate: CCGCCUAACACUGCCAAUGCCAGUCCCAAGCCCAGAUAAAAGUGGAGGGGGCGG [G22A G34A]
Result string: 0.14

Query string: # iterate: CCGCCUAACACUGCCAAUGCCGCUCCCAAGCCCGGAUAAAAGUGGAGGGGACGG [G23C G51A]
Result string: 0.05

Query string: # iterate: CCGCCUAAAACUGCCAAUGCCGGUCCCAAGCCCGGAUAAACGUGGAGGGGGCGG [A41C C9A]
Result string: 0.39

Query string: # iterate: CCGCCUAACACUGCCAAUGCCGGUCCCAAGCCCGGGUAAAAGUGGAGGGGUCGG [A36G G51U]
Result string: 0.37

Query string: # iterate: CCGCCUAACACUGCCAAUGCCGGUCCCAAGCCCGGAUACAAGUGGAGGGGGCGC [A39C G54C]
Result string: 0.6

Query string: # iterate: CCGCCUAAAACUGCCAAUGCCGGUCCCAAGCCGGGAUAAAAGUGGAGGGGGCGG [C33G C9A]
Result string: 0.02

Query string: # iterate: CCGCCUAAAACUGCCAAUGCCGGUCCCAAGCCCGGAUAAAAGUGGAGGGAGCGG [C9A G50A]
Result string: 0.13

Query string: # iterate: CCGCCUAACACUGCCAAUGCCGGUCCCAAGCGCAGAUAAAAGUGGAGGGGGCGG [C32G G34A]
Result string: 0.09
